TARGET_ENTITY: NK1 receptor (Homo sapiens)
Sequence (P25103 whole entry, species assumed): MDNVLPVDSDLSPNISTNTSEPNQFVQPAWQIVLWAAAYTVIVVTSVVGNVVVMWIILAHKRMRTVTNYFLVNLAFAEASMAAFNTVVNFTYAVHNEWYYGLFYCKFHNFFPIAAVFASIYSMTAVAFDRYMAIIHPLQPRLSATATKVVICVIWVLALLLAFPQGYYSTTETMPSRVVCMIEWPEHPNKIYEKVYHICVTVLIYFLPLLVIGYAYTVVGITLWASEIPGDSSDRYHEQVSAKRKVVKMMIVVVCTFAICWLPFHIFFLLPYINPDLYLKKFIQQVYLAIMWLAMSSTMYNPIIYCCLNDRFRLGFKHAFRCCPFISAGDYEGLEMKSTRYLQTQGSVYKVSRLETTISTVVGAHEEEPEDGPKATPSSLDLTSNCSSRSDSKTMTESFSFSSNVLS
ASSAY_METHOD_TEXT: neurokinin receptor binding assay, NK1
What pKi was measured for each of the following?
Scale explanation: pKi corresponds to minus log10 of a concentration expressed in moles per litre.

Entry CN(C/C(=N\OC/C(N)=N/O)C(CCN1CCC(N2CCCN(C/C(N)=N/O)C2=O)CC1)c1ccc(Cl)c(Cl)c1)C(=O)c1cc(Cl)cc(Cl)c1 (stereo not shown) [Example 16] has what pKi?
9.40

Entry CO/N=C(\CN(C)C(=O)c1cc(Cl)cc(Cl)c1)[C@H](CCN1CCC(N2CC(=O)N[C@H](CC(N)=O)C2=O)CC1)c1ccc(Cl)c(Cl)c1 [Example 11A] has what pKi?
9.10

Entry CON=C(CN(C)C(=O)c1cc(Cl)cc(Cl)c1)C(CCN1CCC(N2C(=O)c3ccccc3C2C)CC1)c1ccc(Cl)c(Cl)c1 (stereo not shown) [Example 5B] has what pKi?
9.05

Entry CO/N=C(\CN(C)C(=O)c1cc(Cl)cc(Cl)c1)C(CCN1CCC(N2CC(=O)N[C@@H](CC(=O)O)C2=O)CC1)c1ccc(Cl)c(Cl)c1 (stereo partly shown) [Example 10B] has what pKi?
8.54

====

TARGET_ENTITY: NK2 receptor (Homo sapiens, UniProt P21452)
Sequence (P21452 1-398): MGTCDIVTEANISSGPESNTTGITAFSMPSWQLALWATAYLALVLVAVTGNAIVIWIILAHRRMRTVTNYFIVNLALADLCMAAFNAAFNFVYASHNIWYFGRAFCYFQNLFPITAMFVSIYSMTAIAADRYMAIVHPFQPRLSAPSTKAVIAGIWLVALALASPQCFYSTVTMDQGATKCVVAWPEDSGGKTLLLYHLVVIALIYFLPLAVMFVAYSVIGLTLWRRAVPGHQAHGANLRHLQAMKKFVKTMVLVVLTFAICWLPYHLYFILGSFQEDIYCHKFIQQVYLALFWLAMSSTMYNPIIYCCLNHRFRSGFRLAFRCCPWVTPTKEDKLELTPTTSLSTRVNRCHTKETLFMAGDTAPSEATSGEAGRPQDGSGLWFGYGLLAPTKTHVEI
ASSAY_METHOD_TEXT: neurokinin receptor binding assay, NK2
METRIC: pKi
Scale explanation: pKi corresponds to minus log10 of a concentration expressed in moles per litre.

Entry CO/N=C(\CN(C)C(=O)c1cc(Cl)cc(Cl)c1)[C@H](CCN1CCC(N2CC(=O)N[C@H](CC(N)=O)C2=O)CC1)c1ccc(Cl)c(Cl)c1 [Example 11A] has what pKi?
9.00

Entry "CO/N=C(\CN(C)C(=O)c1cc(Cl)cc(Cl)c1)[C@H](CCN1CCC(N2CCCN(Cc3ccc[n+]([O-])c3)C2=O)CC1)c1ccc(Cl)c(Cl)c1" has what pKi?
9.40

Entry CO/N=C(\CN(C)C(=O)c1cc(Cl)cc(Cl)c1)C(CCN1CCC(N2CC(=O)N[C@@H](CC(=O)O)C2=O)CC1)c1ccc(Cl)c(Cl)c1 (stereo partly drawn) [Example 10B] has what pKi?
7.54

====

TARGET_ENTITY: NK3 receptor (Homo sapiens, UniProt P29371)
Sequence (P29371 1-465): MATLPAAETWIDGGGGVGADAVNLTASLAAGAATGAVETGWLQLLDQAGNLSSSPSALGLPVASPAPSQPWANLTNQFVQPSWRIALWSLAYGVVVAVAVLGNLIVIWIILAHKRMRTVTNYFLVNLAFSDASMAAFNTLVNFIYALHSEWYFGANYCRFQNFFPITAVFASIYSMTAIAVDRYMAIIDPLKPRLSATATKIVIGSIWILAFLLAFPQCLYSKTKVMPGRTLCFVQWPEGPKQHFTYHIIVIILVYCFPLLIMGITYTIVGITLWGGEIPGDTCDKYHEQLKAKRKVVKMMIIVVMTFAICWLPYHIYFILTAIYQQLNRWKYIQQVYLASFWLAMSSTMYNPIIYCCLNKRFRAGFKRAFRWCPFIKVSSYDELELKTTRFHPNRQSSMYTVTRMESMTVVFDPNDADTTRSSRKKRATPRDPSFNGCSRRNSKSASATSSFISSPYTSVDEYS
METRIC: Ki (nM)
Your answer is read as nM, so omit the unit and give the number.

Entry CO/N=C(\CN(C)C(=O)c1cc(Cl)cc(Cl)c1)C(CCN1CCC(N2CCNCC2=O)CC1)c1ccc(Cl)c(Cl)c1 (stereo not shown) has what Ki?
1.2

Entry CO/N=C(\CN(C)C(=O)c1cc(Cl)cc(Cl)c1)[C@H](CCN1CCC(N2CC(=O)N[C@H](CC(N)=O)C2=O)CC1)c1ccc(Cl)c(Cl)c1 [Example 11A] has what Ki?
1.9

Entry CO/N=C(\CN(C)C(=O)c1cc(Cl)cc(Cl)c1)[C@H](CCN1CCC(n2c(=O)[nH]c3ccccc32)CC1)c1ccc(Cl)c(Cl)c1 [Example 18A] has what Ki?
9.8

Entry CON=C(CN(C)C(=O)c1cc(Cl)cc(Cl)c1)C(CCN1CCC(N2CCCN(C(C)(C)C(=O)O)C2=O)CC1)c1ccc(Cl)c(Cl)c1 (stereo not shown) has what Ki?
0.3

Entry CN(C/C(=N\OC/C(N)=N/O)C(CCN1CCC(N2CCCN(C/C(N)=N/O)C2=O)CC1)c1ccc(Cl)c(Cl)c1)C(=O)c1cc(Cl)cc(Cl)c1 (stereo not shown) has what Ki?
0.7

Entry CO/N=C(\CN(C)C(=O)c1cc(Cl)cc(Cl)c1)C(CCN1CCC(N2CC(=O)N[C@@H](CC(=O)O)C2=O)CC1)c1ccc(Cl)c(Cl)c1 (stereo partly shown) [Example 10B] has what Ki?
34.6

Entry "CO/N=C(\CN(C)C(=O)c1ccc2c(c1)OCO2)[C@H](CCN1CCC(N2CCCNC2=O)CC1)c1ccc(Cl)c(Cl)c1" has what Ki?
3.8

These measurements were taken from patent US6534502B2.
